TGI reference
tested on: ACHN renal; test: NCI tumour cell line growth inhibition, 48 h

Some entries whose results are on file:
compound | test.system | TGI
C[n+]1ccc2/c(=C\C#N)c3ccccc3n21 | ACHN renal | > 100 µM
CC(Cn1c(=O)oc2ccccc21)N(C)C (stereo not given) | ACHN renal | > 100 µM
O=C(Nc1ccccc1)c1cc2cc(CCl)ccc2oc1=O | ACHN renal | 31.1 µM
CN(CCc1ccccn1)/[N+]([O-])=N/O (tested in a mixture with another compound) | ACHN renal | > 100 µM

Request: Name the recorded TGI of the compound listed here: C=C(C)C1CC=C(C)C(O)([C@@]2(O)C[C@H](C(=C)C)CC=C2C)C1 (stereo not given in full)
Response: 47.7 µM

Taken from PubChem BioAssay (NCI).
